molecular target: UniProtKB Q99572; test: Radioligand binding, human P2X7-1321N1 cell membranes, tracer tritiated A-804598; details: human P2X7-1321N1 membranes; 1 hour at 4° C.; IC50 corrected for tracer concentration and affinity
Sequence (Q99572 whole entry): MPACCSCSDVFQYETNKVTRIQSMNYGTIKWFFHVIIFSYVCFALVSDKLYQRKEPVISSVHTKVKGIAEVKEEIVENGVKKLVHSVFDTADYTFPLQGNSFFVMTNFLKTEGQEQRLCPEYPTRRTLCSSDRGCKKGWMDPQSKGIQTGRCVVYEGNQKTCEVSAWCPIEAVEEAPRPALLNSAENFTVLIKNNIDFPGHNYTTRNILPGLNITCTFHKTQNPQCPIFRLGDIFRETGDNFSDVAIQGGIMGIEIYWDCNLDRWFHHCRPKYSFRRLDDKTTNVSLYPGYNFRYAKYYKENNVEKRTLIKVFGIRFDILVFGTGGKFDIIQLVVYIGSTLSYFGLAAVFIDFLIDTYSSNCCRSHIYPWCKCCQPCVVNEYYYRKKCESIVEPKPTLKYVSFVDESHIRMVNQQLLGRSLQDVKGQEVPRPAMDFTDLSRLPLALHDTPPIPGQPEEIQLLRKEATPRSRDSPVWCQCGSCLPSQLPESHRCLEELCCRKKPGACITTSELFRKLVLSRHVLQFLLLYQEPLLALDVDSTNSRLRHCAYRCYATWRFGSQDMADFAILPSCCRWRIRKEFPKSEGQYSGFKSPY
pKi: −log10 of the molar value.
// reported pKi per item
REPORTED ENDPOINT: pKi

# COMPOUND, RECORDED MEASUREMENT
rows = [
    ("O=C(c1ccc(F)c(Cl)c1Cl)N1CCc2c(ncnc2-c2cccc(F)n2)C1", 7.40),
    ("O=C(c1cccc(C(F)(F)F)c1Cl)N1CCc2c(ncnc2-c2ccccn2)C1", 7.23),
    ("O=C(c1ccc(F)cc1Cl)N1CCc2c(ncnc2-c2ccn[nH]2)C1", 7.40),
]
